# system tested: Perilipin-5 (Homo sapiens) + 1-acylglycerol-3-phosphate O-acyltransferase ABHD5 (Homo sapiens) (UniProt Q00G26+Q8WTS1)
# Sequence (Q00G26 whole entry, looked up, the tested form may be a part): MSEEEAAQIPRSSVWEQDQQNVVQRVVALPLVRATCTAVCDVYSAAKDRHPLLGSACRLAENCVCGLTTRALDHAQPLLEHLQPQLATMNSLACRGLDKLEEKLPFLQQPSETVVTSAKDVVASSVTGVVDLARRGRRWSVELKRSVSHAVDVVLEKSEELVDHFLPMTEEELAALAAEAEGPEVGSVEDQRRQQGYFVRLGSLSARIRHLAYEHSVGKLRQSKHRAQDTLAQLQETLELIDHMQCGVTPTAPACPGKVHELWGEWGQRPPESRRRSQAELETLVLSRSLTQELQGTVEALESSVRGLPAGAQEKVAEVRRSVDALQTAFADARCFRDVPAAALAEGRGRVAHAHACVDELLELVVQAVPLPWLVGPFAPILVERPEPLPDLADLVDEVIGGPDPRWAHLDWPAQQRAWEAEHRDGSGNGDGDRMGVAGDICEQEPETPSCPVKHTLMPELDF
# Sequence (Q8WTS1 whole entry, looked up, the tested form may be a part): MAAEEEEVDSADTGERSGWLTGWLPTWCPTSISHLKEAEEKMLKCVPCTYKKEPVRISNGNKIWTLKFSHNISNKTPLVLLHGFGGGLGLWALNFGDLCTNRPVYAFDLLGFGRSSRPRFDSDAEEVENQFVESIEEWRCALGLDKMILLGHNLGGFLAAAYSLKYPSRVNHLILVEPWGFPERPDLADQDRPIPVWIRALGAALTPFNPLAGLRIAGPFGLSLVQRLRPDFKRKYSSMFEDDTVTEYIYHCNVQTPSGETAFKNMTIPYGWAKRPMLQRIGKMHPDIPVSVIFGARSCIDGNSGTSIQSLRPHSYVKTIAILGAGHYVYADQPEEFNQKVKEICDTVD
# measurement protocol: blockers of ABHD5 binding to perilipin-5 – cell lysate, luminescence, proteins expressed in HEK293T, dose response (AID 651733);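 also: split Gaussia princeps luciferase complementation between ABHD5 and MLDP fusion proteins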
# setup conditions: ABHD5-PLIN5 interaction
The source made the active and inactive calls. No rule for the calls is given here.
measurement kind: IC50

These recorded examples may help you get a feel for the data.
COc1ccccc1C=CC(=O)C=Cc1ccccc1OC ... 6.63 µM
CC(C)(C)NC(=O)C(c1cccc2ccccc12)n1c(=O)c(-c2ccco2)nc2ccccc21 (centres undefined) ... 4.38 µM
Cc1cccc(C)c1OCc1cn(CC(=O)c2ccc(O)cc2)nn1 ... 5.07 µM
N#Cc1ccccc1OCc1cn(CC(=O)c2ccc(O)cc2)nn1 ... 5.91 µM
O=C(NC1CCCCC1)C(c1cc2ccccc2o1)n1c(=O)c(-c2ccco2)nc2ccccc21 (centres undefined) ... 3.47 µM
COc1cc(C(C)=O)ccc1OCc1cn(CC(=O)c2ccc(O)cc2)nn1 ... 5.81 µM
CCN(CCCc1ccccc1)CCCc1ccccc1 ... 2.62 µM
CC(C)(C)NC(=O)C(c1ccc(C#N)cc1)n1c(=O)c(-c2ccco2)nc2ccccc21 (centres undefined) ... 2.52 µM

Determine from records and report IC50 for CC1(C)C2CCC(CN=C(N)CSS(=O)(=O)O)C1C2 (centres undefined)
4.64 µM

Determine from records and report IC50 for Cc1ccc(S(=O)(=O)N2C[C@@]3(O)Cn4c(=O)ccc(=O)n4C[C@@]3(OC(=O)NCC3CCCCC3)C2)cc1
inactive

Determine from records and report IC50 for O=C(NCc1ccccc1)C(c1ccccc1)n1c(=O)c(-c2ccco2)nc2ccccc21 (centres undefined)
4.77 µM

Determine from records and report IC50 for Cc1ccc(O)c(C(=O)C=Cc2ccccc2)c1
2.61 µM

Determine from records and report IC50 for CC(=O)OCC1=C(C(=O)O)N2C(=O)C(NC(=O)CCn3nc(C(F)(F)F)c(Br)c3C3CC3)C2SC1 (centres undefined)
inactive

Determine from records and report IC50 for O=c1[nH]c(C2CCN(S(=O)(=O)c3ccc(S(=O)(=O)NC4CC4)cc3)CC2)nc2c1nnn2Cc1ccc(F)cc1
2.39 µM

Source of measurements: PubChem BioAssay AID651733
